# Target System: FGFR1 (UniProt P11362)
# Sequence (P11362 whole entry, looked up): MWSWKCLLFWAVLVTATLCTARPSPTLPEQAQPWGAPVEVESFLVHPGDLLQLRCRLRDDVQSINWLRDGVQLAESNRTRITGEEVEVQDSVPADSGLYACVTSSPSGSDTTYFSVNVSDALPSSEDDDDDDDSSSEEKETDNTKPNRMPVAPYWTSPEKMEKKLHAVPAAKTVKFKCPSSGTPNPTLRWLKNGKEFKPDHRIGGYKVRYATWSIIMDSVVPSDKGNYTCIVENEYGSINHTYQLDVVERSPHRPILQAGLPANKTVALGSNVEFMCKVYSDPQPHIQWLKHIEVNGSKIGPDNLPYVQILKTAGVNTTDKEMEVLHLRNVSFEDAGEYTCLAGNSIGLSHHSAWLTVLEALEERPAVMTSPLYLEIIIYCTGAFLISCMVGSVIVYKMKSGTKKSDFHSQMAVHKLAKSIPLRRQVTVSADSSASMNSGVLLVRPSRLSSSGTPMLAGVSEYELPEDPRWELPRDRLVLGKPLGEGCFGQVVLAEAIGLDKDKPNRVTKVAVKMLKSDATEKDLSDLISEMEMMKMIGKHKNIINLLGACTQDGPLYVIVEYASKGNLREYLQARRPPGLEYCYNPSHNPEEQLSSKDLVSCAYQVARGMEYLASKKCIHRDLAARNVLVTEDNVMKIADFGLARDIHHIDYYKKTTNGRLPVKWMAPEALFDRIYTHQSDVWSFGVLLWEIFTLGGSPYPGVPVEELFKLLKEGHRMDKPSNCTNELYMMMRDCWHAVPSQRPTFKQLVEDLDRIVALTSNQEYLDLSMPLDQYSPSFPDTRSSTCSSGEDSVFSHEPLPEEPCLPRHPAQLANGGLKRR
# Test Details: phosphorylation enrichment, bacterial display (enrichment ratio); higher = better substrate or ligand; peptides without Tyr show the background;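 note: 11-residue human phosphosite peptides and single-mutation variants displayed on the E. coli surface, counted by deep sequencing, each peptide's frequency after selection divided by its frequency in the unselected input library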;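 note: frequency after pTyr selection over input frequency; kinase dosed for 20-30% of maximal phosphorylation in three min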

- Residue String: "CNTIHYNYMCN [TP53_Y234_T230N]"
  phosphorylation enrichment: 0.586
- Residue String: "QCTSAHPLQPE [NANS_Y188_Y188H]"
  phosphorylation enrichment: 0.966
- Residue String: "GIKAAYEAERG [LMNA_Y81_L85R]"
  phosphorylation enrichment: 0.403
- Residue String: "QMIETYFDFRV [NSMF_Y506_L511V]"
  phosphorylation enrichment: 5.84
- Residue String: "GTFVIYVRFGG [FLNB_Y1687_YF]"
  phosphorylation enrichment: 0.52
- Residue String: "GTSLIYWTLFT [G6PC3_Y214]"
  phosphorylation enrichment: 5.01
- Residue String: "SPPILYSFFLN [FCRL6_Y239_D244N_YF]"
  phosphorylation enrichment: 1.41

---

# Target System: MERTK (UniProt Q12866)
# Sequence (Q12866 whole entry, looked up): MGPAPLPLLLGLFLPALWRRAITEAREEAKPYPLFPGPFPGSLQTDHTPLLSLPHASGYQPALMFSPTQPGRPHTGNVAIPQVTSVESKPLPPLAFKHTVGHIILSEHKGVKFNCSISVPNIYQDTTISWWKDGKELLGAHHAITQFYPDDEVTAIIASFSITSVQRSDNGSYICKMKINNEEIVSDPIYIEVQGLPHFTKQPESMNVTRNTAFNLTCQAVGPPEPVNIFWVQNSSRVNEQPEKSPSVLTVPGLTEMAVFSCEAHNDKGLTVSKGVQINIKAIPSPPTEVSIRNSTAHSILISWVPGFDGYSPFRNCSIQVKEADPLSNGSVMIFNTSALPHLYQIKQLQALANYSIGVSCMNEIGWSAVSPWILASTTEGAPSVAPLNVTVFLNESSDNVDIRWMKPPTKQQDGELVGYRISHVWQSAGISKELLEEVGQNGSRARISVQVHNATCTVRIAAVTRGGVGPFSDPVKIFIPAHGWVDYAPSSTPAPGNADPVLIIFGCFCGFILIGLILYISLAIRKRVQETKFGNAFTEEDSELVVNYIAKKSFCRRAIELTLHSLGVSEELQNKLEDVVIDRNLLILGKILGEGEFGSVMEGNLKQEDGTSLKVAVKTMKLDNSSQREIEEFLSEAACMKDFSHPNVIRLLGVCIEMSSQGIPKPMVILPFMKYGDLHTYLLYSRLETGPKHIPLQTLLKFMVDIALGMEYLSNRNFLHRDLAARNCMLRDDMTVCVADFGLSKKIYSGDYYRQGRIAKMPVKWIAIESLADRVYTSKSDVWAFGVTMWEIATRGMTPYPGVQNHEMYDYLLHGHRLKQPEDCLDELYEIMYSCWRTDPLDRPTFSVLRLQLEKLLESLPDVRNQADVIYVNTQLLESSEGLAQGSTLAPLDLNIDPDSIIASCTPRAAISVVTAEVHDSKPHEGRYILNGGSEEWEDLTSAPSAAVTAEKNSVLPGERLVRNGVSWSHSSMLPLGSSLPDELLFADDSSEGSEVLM
# Test Details: phosphorylation enrichment, bacterial display (enrichment ratio); higher = better substrate or ligand; peptides without Tyr show the background

- Residue String: "YRVAGYETQGG [TIA1_Y383]"
  phosphorylation enrichment: 0.324
- Residue String: "DVLEFYNSKKT [PAK1_Y131]"
  phosphorylation enrichment: 0.405
- Residue String: "GRQGIYTENER [GPR143_Y231]"
  phosphorylation enrichment: 0.456
- Residue String: "NGSKAYAYVHF [PABPC5_Y147_G146A]"
  phosphorylation enrichment: 0.656
- Residue String: "MFFSTYDRDND [FGB_Y408]"
  phosphorylation enrichment: 0.408
- Residue String: "TWNPKYTLRSH [STRN3_Y474]"
  phosphorylation enrichment: 0.409
- Residue String: "YQQLFYLLQIN [IQGAP2_Y890_T894I]"
  phosphorylation enrichment: 1.31
- Residue String: "ESMNTYLQTSP [NAT1_Y208]"
  phosphorylation enrichment: 0.412
- Residue String: "GQLIVYAPPEW [CNTN6_Y315_F314V]"
  phosphorylation enrichment: 1.37
- Residue String: "MSRDVYSIDFF [NTRK2_Y702_T704I_YF]"
  phosphorylation enrichment: 7.45
- Residue String: "CSKRFYQLTKL [AR_Y858_R855K]"
  phosphorylation enrichment: 0.47
- Residue String: "GGQSVYHVHLH [HINT1_Y109]"
  phosphorylation enrichment: 0.434
- Residue String: "PSTYRYERGSR [INPPL1_Y663_P659S]"
  phosphorylation enrichment: 0.561
- Residue String: "SDGGCYEQLFV [MC4R_Y41]"
  phosphorylation enrichment: 0.806
- Residue String: "AAYNKYDQERF [CDC73_Y293_R292K]"
  phosphorylation enrichment: 0.287
- Residue String: "GTSLIYWTLFT [G6PC3_Y214]"
  phosphorylation enrichment: 5.81
- Residue String: "TCRPPYFHRNC [HGD_Y333_F329C_YF]"
  phosphorylation enrichment: 0.758
- Residue String: "LIFVSYDDWDF [GRIN2A_Y281_S278F_YF]"
  phosphorylation enrichment: 2.03
- Residue String: "RLSVDYSKKSK [TUBA3E_Y161]"
  phosphorylation enrichment: 0.461
- Residue String: "PYADPYYDYEI [ZC3H18_Y371]"
  phosphorylation enrichment: 4.93
- Residue String: "FDKPVYQKTTE [LDLR_Y828_N825K]"
  phosphorylation enrichment: 0.473
- Residue String: "INQGPYENRSV [ATP6V1B1_Y462]"
  phosphorylation enrichment: 0.38
- Residue String: "WAAQRYGRELR [BAD_Y110]"
  phosphorylation enrichment: 0.514
- Residue String: "ENAGFYFQVSA"
  phosphorylation enrichment: 0.333
- Residue String: "CEAIEYLESKQ [BTK_Y511_M509I]"
  phosphorylation enrichment: 0.461
- Residue String: "ASMAKYFASEI [ACADSB_Y372_YF]"
  phosphorylation enrichment: 0.416
- Residue String: "FNSLPYQVPTS [CALCOCO2_Y358]"
  phosphorylation enrichment: 1.34
- Residue String: "RCLKDYGEFEV [GINS1_Y156]"
  phosphorylation enrichment: 0.524
- Residue String: "SVIVPYEPPEV [TP53_Y220_V217I]"
  phosphorylation enrichment: 0.447
- Residue String: "KPVDTYFDSTR [DYNC2H1_Y2230_M2227V_YF]"
  phosphorylation enrichment: 0.54
